# assayed target: T1, human corticotrophin releasing hormone receptor type 2 (CRHR2) (human, UniProt Q13324 1-411)
# T1 sequence (looked up): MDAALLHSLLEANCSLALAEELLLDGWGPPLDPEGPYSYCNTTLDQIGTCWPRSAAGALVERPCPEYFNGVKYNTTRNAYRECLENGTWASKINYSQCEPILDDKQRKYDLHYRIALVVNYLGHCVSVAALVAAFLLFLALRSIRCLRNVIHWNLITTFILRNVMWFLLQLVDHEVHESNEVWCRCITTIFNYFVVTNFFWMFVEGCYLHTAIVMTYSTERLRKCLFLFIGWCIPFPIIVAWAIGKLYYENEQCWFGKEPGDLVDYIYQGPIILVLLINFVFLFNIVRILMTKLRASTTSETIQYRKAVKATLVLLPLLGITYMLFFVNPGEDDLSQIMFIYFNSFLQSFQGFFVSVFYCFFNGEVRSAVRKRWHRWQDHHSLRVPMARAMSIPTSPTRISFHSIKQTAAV
# assay text: cell-based or functional assay
Where no end group is shown, it is not given here.

# binder, Log DR
records = [
    ("TKFTLSLDVPTNIMNCLFNIAKAKNLRAQAAANAHLMAQI (NES-PEG (about 20 kDa) on Cys 16; C-terminal amide (-NH2)) [Pegylated Cys-variant stresscopin-like peptide with NES linker and PEG about 20 kDa SEQ ID NO: 70]", "~2.07 log10"),
    ("TKFTLSLDCPTNIMNLLFNIAKAKNLRAQAAANAHLMAQI (NES-PEG (about 20 kDa) on Cys 9; C-terminal amide (-NH2)) [Pegylated Cys-variant stresscopin-like peptide with NES linker and PEG about 20 kDa SEQ ID NO: 63]", "~2.12 log10"),
    ("TCFTLSLDVPTNIMNLLFNIAKAKNLRAQAAANAHLMAQI-NH2 [Cys-variant stresscopin-like peptide SEQ ID NO: 3]", "0.72 log10"),
    ("TKFCLSLDVPTNIMNLLFNIAKAKNLRAQAAANAHLMAQI (NES-PEG (about 20 kDa) on Cys 4; C-terminal amide (-NH2)) [Pegylated Cys-variant stresscopin-like peptide with NES linker and PEG about 20 kDa SEQ ID NO: 58]", "~2.4 log10"),
    ("TKFTLSLDVPTNIMNLLFNIAKAKNLRAQAAANAHLCAQI (NES-PEG (about 20 kDa) on Cys 37; C-terminal amide (-NH2)) [Pegylated Cys-variant stresscopin-like peptide with NES linker and PEG about 20 kDa SEQ ID NO: 91]", "> 3.43 log10"),
    ("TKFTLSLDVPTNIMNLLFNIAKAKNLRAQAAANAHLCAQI-NH2 [Cys-variant stresscopin-like peptide SEQ ID NO: 38]", "> 2.95 log10"),
    ("TKFTLSLDVPTNIMNLLFNIAKAKNLRAQAAANCHLMAQI-NH2 [Cys-variant stresscopin-like peptide SEQ ID NO: 35]", "0.7 log10"),
    ("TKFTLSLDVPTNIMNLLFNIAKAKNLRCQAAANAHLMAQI (NES-PEG MW2000 on Cys 28; C-terminal amide (-NH2)) [Pegylated Cys-variant stresscopin-like peptide, NES-PEG MW2000, SEQ ID NO: 95]", "0.43 log10"),
    ("TKFTLSLDVPTNIMNLLFNIAKAKNLCAQAAANAHLMAQI-NH2 [Cys-variant stresscopin-like peptide SEQ ID NO: 28]", "1.61 log10"),
    ("TKCTLSLDVPTNIMNLLFNIAKAKNLRAQAAANAHLMAQI (NES-PEG (about 20 kDa) on Cys 3; C-terminal amide (-NH2)) [Pegylated Cys-variant stresscopin-like peptide with NES linker and PEG about 20 kDa SEQ ID NO: 57]", "~1.9 log10"),
    ("TCFTLSLDVPTNIMNLLFNIAKAKNLRAQAAANAHLMAQI (NES-PEG (about 20 kDa) on Cys 2; C-terminal amide (-NH2)) [Pegylated Cys-variant stresscopin-like peptide with NES linker and PEG about 20 kDa SEQ ID NO: 56]", "~2.34 log10"),
    ("TKFTLSLDVPTCIMNLLFNIAKAKNLRAQAAANAHLMAQI-NH2 [Cys-variant stresscopin-like peptide SEQ ID NO: 13]", "-0.01 log10"),
    ("TKFTLSLDVPTNIMNLLFNIAKAKNLRAQAAANAHCMAQI (NES-PEG (about 20 kDa) on Cys 36; C-terminal amide (-NH2)) [Pegylated Cys-variant stresscopin-like peptide with NES linker and PEG about 20 kDa SEQ ID NO: 90]", "~2.17 log10"),
    ("TKFTLSLDVPTNIMNLLFNIAKAKNLRAQAAANAHLMAQC (NES-PEG (about 20 kDa) on Cys 40; C-terminal amide (-NH2)) [Pegylated Cys-variant stresscopin-like peptide with NES linker and PEG about 20 kDa SEQ ID NO: 94]", "> 2.39 log10"),
    ("TKFTLSLDVPTNIMNLCFNIAKAKNLRAQAAANAHLMAQI (NES-PEG (about 20 kDa) on Cys 17; C-terminal amide (-NH2)) [Pegylated Cys-variant stresscopin-like peptide with NES linker and PEG about 20 kDa SEQ ID NO: 71]", "~2.26 log10"),
    ("TKFTLSLCVPTNIMNLLFNIAKAKNLRAQAAANAHLMAQI (NES-PEG (about 20 kDa) on Cys 8; C-terminal amide (-NH2)) [Pegylated Cys-variant stresscopin-like peptide with NES linker and PEG about 20 kDa SEQ ID NO: 62]", "> 3.48 log10"),
    ("TKFTLSLDVPTNIMNLLFCIAKAKNLRAQAAANAHLMAQI-NH2 [Cys-variant stresscopin-like peptide SEQ ID NO: 20]", "0.52 log10"),
    ("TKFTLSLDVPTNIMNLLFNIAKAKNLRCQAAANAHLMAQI (NES-PEG MW40000 on Cys 28; C-terminal amide (-NH2)) [Pegylated Cys-variant stresscopin-like peptide, NES-PEG MW40000, SEQ ID NO: 100]", "1.1 log10"),
    ("TKFTCSLDVPTNIMNLLFNIAKAKNLRAQAAANAHLMAQI (NES-PEG (about 20 kDa) on Cys 5; C-terminal amide (-NH2)) [Pegylated Cys-variant stresscopin-like peptide with NES linker and PEG about 20 kDa SEQ ID NO: 59]", "~2.32 log10"),
]
